- test.target: human Claudin18.2 (CLDN18.2) (human, UniProt P56856 1-261)
- method.description: cell-based or functional assay
So basically: ADCC EC50 at 4 nM or higher? That is TRUE. Lower than 4 nM? That is FALSE.

(Q) Kindly determine if ADCC EC50 recorded for chAb25 (antibody, V domains shown) VH: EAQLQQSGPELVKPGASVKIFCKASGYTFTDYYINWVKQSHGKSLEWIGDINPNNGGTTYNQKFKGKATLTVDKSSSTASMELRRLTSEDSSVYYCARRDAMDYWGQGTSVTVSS VL: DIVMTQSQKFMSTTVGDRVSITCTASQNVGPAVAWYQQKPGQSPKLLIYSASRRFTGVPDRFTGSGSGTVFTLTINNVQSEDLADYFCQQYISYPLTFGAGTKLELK is above or exactly 4 nM.
(A) TRUE

(Q) Item: chAb18 (antibody, V domains shown) VH: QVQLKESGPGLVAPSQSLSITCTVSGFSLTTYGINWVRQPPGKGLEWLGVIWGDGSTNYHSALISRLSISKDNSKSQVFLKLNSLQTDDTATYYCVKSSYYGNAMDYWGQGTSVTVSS VL: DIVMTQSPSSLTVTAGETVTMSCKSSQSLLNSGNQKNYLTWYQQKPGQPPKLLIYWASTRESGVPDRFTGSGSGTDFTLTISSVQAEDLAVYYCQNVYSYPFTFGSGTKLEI
(A) TRUE

(Q) Item: chAb10 (antibody, V domains shown) VH: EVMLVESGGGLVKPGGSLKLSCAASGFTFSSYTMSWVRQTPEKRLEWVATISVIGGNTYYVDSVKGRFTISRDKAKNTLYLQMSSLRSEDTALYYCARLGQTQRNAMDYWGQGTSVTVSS VL: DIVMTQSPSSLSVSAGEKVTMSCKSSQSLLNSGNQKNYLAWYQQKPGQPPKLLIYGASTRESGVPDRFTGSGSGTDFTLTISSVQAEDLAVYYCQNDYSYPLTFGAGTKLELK
(A) FALSE

(Q) Item: chAb24 (antibody, V domains shown) VH: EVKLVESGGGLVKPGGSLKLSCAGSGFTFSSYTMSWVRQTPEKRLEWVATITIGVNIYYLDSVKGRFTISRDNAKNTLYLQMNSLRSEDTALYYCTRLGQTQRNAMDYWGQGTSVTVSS VL: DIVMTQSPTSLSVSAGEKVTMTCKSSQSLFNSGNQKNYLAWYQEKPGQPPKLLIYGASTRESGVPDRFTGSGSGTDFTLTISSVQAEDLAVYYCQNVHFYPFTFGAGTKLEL
(A) TRUE

(Q) Item: chAb20 (antibody, V domains shown) VH: EVMLVESGGGLVKPGGSLKLSCVASGFTFSSYTMSWVRQTPEKRLEWVATIIGGYGNTYYSDSVKGRITISRDSAKNTLYLQMISLRSEDTALYYCTRLGQTQRNAMDYWGQGTSVTVSS VL: DILMTQSPSSLSVSAGEKVTMNCKSSQSLLNSGNQKNYLAWYQQKPGQPPKLLIYGASTRESGVPDRFTGSGSGTDFTLTISSVQAEDLAVYYCQNDYYYPFTFGAGTKLEL
(A) TRUE
